For each of the molecules below, state its NanoBRET Fold Response.
- Assayed System: FZD6 (Homo sapiens)
- Construct: purchased Promega (in-house HiBiT-GPCR construct library, NanoBRET)
- Sequence (O60353 19-706): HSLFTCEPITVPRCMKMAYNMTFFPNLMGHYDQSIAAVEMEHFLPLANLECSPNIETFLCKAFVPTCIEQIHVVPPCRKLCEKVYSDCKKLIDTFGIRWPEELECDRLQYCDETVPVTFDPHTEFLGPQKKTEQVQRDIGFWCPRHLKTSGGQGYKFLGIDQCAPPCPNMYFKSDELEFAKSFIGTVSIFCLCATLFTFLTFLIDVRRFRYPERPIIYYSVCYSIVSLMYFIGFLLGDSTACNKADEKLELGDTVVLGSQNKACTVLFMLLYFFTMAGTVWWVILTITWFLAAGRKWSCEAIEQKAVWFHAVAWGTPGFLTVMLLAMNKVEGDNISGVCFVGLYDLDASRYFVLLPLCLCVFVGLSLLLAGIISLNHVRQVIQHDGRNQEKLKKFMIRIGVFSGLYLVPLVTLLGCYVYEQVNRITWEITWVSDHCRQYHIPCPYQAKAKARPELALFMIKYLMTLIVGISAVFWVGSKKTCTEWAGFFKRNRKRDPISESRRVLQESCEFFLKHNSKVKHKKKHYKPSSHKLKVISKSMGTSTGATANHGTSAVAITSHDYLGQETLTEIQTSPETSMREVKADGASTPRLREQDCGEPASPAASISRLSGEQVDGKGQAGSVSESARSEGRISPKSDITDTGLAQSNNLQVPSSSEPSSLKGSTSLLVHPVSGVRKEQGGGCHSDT
- Assay Protocol: NanoBRET screen HiBiT-FZD6 in HEK293
- Format: binding
- Particulars: FZD6; tracer 0.1μM
- Method: Each tracer candidate was screened across the entire library of HiBiT-GPCR constructs using NanoBRET as the detection modality. As depicted in Figure 4A, the specificity of interactions was evaluated through decrease in BRET due to competitive displacement of a bound tracer by excess parental compound. Each tracer was analyzed for binding to each HiBiT-GPCR fusion in the absence and in the presence of competing parental compound. […]

Query :: Recorded NanoBRET Fold Response for Cc1nc2n(c(=O)c1CCN1CCC(c3noc4cc(F)ccc34)CC1)CCCC2OC(=O)NCCOCCOCCOCCOCCNC(=O)CCc1ccc2n1[B-](F)(F)[N+]1=C(c3ccc[nH]3)C=CC1=C2 (stereo not drawn) , please?
Result :: 1.01

Query :: Follow-up item: O=C(CCc1ccc2n1[B-](F)(F)[N+]1=C(c3ccc[nH]3)C=CC1=C2)NCCOCCOCCNC(=O)OCCOCCN1CCN(C2=Nc3ccccc3Sc3ccccc32)CC1
Result :: 1.01

Query :: Follow-up item: COc1ccccc1N1CCN(CCCCN2C(=O)c3ccc(CNC(=O)CCOCCOCCOCCOCCNC(=O)CCc4ccc5n4[B-](F)(F)[N+]4=C(c6ccc[nH]6)C=CC4=C5)cc3C2=O)CC1
Result :: 0.95

----------
- Assayed System: HCRTR2 (Homo sapiens)
- Construct: purchased Promega (in-house HiBiT-GPCR construct library, NanoBRET)
- Sequence (O43614 1-444): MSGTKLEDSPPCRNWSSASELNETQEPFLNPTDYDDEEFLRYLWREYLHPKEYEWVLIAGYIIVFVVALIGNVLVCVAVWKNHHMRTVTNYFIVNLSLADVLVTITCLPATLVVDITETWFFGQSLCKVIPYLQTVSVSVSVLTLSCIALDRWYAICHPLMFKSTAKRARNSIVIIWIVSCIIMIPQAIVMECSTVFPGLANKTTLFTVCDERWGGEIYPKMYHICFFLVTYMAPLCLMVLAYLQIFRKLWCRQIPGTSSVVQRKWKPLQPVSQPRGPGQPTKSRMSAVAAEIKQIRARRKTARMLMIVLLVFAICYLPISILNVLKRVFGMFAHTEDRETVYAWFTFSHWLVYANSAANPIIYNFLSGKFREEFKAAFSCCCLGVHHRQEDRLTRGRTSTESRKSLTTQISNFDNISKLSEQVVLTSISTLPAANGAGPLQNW
- Assay Protocol: NanoBRET screen HiBiT-HCRTR2 in HEK293
- Type: binding
- Particulars: HCRTR2; tracer 0.1μM
Assay Endpoint: NanoBRET Fold Response
Could you respond with only the numeric value?

Query :: Recorded NanoBRET Fold Response for O=C(CCc1ccc2n1[B-](F)(F)[N+]1=C(c3ccc[nH]3)C=CC1=C2)NCCOCCOCCNC(=O)OCCOCCN1CCN(C2=Nc3ccccc3Sc3ccccc32)CC1 [Quetiapine-a-2-NB590] , please?
Result :: 1.01

Query :: Follow-up item: CC(C)N(CC[C@H](c1ccccc1)c1cc(CCNC(=O)c2ccc(CNC(=O)CCc3ccc4n3[B-](F)(F)[N+]3=C(c5ccc[nH]5)C=CC3=C4)cc2)ccc1O)C(C)C [Tolterodine-BZ-NB590]
Result :: 0.91

Query :: Follow-up item: N#CN=C(NCCCOc1cccc(CN2CCCCC2)c1)NCCNC(=O)CCOCCOCCOCCOCCNC(=O)CCc1ccc2n1[B-](F)(F)[N+]1=C(c3ccc[nH]3)C=CC1=C2 [Aminopotentidine-2-NB590]
Result :: 1.01

Query :: Follow-up item: O=C(CCc1ccc2n1[B-](F)(F)[N+]1=C(c3ccc[nH]3)C=CC1=C2)NCc1ccc(C(=O)NCCOCCC(=O)N[C@@H]2CC[C@@]3(O)[C@H]4Cc5ccc(O)c6c5[C@@]3(CCN4CC3CC3)[C@H]2O6)cc1 [Naltrexone-3-NB590]
Result :: 1.04

Query :: Follow-up item: COc1ccccc1N1CCN(CCCCN2C(=O)c3ccc(CNC(=O)CCOCCOCCOCCOCCNC(=O)CCc4ccc5n4[B-](F)(F)[N+]4=C(c6ccc[nH]6)C=CC4=C5)cc3C2=O)CC1 [NAN-190-2-NB590]
Result :: 1.02

----------
- Assayed System: CHRM5 (Homo sapiens, UniProt P08912)
- Construct: purchased Promega (in-house HiBiT-GPCR construct library, NanoBRET)
- Sequence (P08912 whole entry): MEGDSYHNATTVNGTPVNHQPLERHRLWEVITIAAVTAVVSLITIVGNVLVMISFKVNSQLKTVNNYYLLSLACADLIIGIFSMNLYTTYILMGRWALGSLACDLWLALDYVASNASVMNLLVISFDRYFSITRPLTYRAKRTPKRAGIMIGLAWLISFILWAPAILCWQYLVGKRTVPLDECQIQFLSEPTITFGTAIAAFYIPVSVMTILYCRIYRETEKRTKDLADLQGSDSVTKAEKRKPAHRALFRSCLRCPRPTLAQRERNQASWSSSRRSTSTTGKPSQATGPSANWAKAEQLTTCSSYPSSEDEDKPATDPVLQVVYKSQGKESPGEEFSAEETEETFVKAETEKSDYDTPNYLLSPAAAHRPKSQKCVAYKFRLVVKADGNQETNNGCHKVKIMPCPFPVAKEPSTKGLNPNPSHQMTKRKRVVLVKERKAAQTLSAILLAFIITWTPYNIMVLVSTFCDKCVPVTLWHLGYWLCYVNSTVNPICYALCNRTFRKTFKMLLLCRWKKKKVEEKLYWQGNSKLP
- Assay Protocol: NanoBRET screen HiBiT-CHRM5 in HEK293
- Format: binding
- Particulars: CHRM5; tracer 1μM
Assay Endpoint: NanoBRET Fold Response

Query :: Recorded NanoBRET Fold Response for Cc1nc2n(c(=O)c1CCN1CCC(c3noc4cc(F)ccc34)CC1)CCCC2OC(=O)NCCOCCOCCOCCOCCNC(=O)CCc1ccc2n1[B-](F)(F)[N+]1=C(c3ccc[nH]3)C=CC1=C2 (centres unmarked) , please?
Result :: 0.95

Query :: Follow-up item: CCCn1c(=O)c2[nH]c(-c3ccc(OCC(=O)NCCNC(=O)CCOCCNC(=O)c4ccc(CNC(=O)CCc5ccc6n5[B-](F)(F)[N+]5=C(c7ccc[nH]7)C=CC5=C6)cc4)cc3)nc2n(CCC)c1=O
Result :: 0.86

Query :: Follow-up item: O=C(CCOCCOCCOCCOCCNC(=O)CCc1ccc2n1[B-](F)(F)[N+]1=C(c3ccc[nH]3)C=CC1=C2)NCCCN1CCN(C2=Nc3ccccc3Oc3ccc(Cl)cc32)CC1
Result :: 0.89

Query :: Follow-up item: COc1ccccc1N1CCN(CCCCN2C(=O)c3ccc(CNC(=O)CCOCCNC(=O)c4ccc(CNC(=O)CCc5ccc6n5[B-](F)(F)[N+]5=C(c7ccc[nH]7)C=CC5=C6)cc4)cc3C2=O)CC1
Result :: 1.24

Query :: Follow-up item: Cc1cc2c(s1)Nc1ccccc1N=C2N1CCN(CCCNC(=O)CCOCCOCCOCCOCCNC(=O)CCc2ccc3n2[B-](F)(F)[N+]2=C(c4ccc[nH]4)C=CC2=C3)CC1
Result :: 1.00

----------
For each of the compounds below, state its NanoBRET Fold Response.
- Assayed System: AVPR1B (Homo sapiens)
- Construct: purchased Promega (in-house HiBiT-GPCR construct library, NanoBRET)
- Sequence (P47901 1-424): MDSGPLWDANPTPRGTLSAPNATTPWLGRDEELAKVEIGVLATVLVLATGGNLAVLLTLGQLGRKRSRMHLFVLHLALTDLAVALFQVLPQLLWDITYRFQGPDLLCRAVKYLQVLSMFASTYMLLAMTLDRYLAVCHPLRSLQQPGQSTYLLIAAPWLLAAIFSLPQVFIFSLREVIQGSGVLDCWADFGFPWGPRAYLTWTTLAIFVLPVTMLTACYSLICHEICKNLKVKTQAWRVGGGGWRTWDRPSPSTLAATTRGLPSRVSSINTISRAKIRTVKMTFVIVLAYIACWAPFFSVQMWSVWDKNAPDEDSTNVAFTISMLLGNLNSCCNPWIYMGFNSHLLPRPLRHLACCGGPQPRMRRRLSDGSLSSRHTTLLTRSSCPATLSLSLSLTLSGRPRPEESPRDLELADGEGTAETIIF
- Assay Protocol: NanoBRET screen HiBiT-AVPR1B in HEK293
- Type: binding
- Particulars: AVPR1B; tracer 0.1μM
Could you respond with only the numeric value?

Query :: Request body: readout NanoBRET Fold Response, system AVPR1B (Homo sapiens), query O=C(CCc1ccc2n1[B-](F)(F)[N+]1=C(c3ccc[nH]3)C=CC1=C2)NCCOCCOCCNC(=O)OCCOCCN1CCN(C2=Nc3ccccc3Sc3ccccc32)CC1 . Return the value.
Result :: 0.86

Query :: Follow-up item: COc1ccccc1N1CCN(CCCCN2C(=O)c3ccc(CNC(=O)CCOCCNC(=O)c4ccc(CNC(=O)CCc5ccc6n5[B-](F)(F)[N+]5=C(c7ccc[nH]7)C=CC5=C6)cc4)cc3C2=O)CC1
Result :: 1.04

Query :: Follow-up item: N#CN=C(NCCCOc1cccc(CN2CCCCC2)c1)NCCNC(=O)CCOCCOCCOCCOCCNC(=O)CCc1ccc2n1[B-](F)(F)[N+]1=C(c3ccc[nH]3)C=CC1=C2
Result :: 1.09

Query :: Follow-up item: CC(C)N(CC[C@H](c1ccccc1)c1cc(CCNC(=O)c2ccc(CNC(=O)CCc3ccc4n3[B-](F)(F)[N+]3=C(c5ccc[nH]5)C=CC3=C4)cc2)ccc1O)C(C)C
Result :: 0.85

Query :: Follow-up item: Cc1nc2n(c(=O)c1CCN1CCC(c3noc4cc(F)ccc34)CC1)CCCC2OC(=O)NCCOCCOCCOCCOCCNC(=O)CCc1ccc2n1[B-](F)(F)[N+]1=C(c3ccc[nH]3)C=CC1=C2 (centres unmarked)
Result :: 1.06

----------
For each of the compounds below, state its NanoBRET Fold Response.
- Assayed System: ADRA1A (Homo sapiens, UniProt P35348)
- Construct: purchased Promega (in-house HiBiT-GPCR construct library, NanoBRET)
- Sequence (P35348 1-466): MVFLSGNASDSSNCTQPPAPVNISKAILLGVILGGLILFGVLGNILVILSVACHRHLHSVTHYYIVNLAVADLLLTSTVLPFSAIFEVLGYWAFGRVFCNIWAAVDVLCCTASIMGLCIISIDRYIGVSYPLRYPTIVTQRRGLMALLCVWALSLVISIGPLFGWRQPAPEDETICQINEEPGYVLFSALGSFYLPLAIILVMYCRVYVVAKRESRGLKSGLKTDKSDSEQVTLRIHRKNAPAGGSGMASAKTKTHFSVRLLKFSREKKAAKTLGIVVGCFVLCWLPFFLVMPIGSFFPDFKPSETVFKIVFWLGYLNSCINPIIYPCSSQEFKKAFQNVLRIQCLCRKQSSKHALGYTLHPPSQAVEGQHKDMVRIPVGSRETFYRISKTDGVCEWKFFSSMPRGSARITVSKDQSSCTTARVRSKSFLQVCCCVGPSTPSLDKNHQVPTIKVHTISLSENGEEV
- Assay Protocol: NanoBRET screen HiBiT-ADRA1A in HEK293
- Format: binding
- Particulars: ADRA1A; tracer 0.1μM
Could you respond with only the numeric value?

Query :: Request body: readout NanoBRET Fold Response, system ADRA1A (Homo sapiens, UniProt P35348), query Cc1cc2c(s1)Nc1ccccc1N=C2N1CCN(CCCNC(=O)CCOCCOCCOCCOCCNC(=O)CCc2ccc3n2[B-](F)(F)[N+]2=C(c4ccc[nH]4)C=CC2=C3)CC1 [Olanzapine-a-2-NB590] . Return the value.
Result :: 2.86

Query :: Follow-up item: CCCn1c(=O)c2[nH]c(-c3ccc(OCC(=O)NCCNC(=O)CCOCCNC(=O)c4ccc(CNC(=O)CCc5ccc6n5[B-](F)(F)[N+]5=C(c7ccc[nH]7)C=CC5=C6)cc4)cc3)nc2n(CCC)c1=O [XAC-3-NB590]
Result :: 1.10

Query :: Follow-up item: O=C(CCOCCOCCOCCOCCNC(=O)CCc1ccc2n1[B-](F)(F)[N+]1=C(c3ccc[nH]3)C=CC1=C2)NCCCN1CCN(C2=Nc3ccccc3Oc3ccc(Cl)cc32)CC1 [Loxapine-a-2-NB590]
Result :: 3.76

Query :: Follow-up item: COc1ccccc1N1CCN(CCCCN2C(=O)c3ccc(CNC(=O)CCOCCOCCOCCOCCNC(=O)CCc4ccc5n4[B-](F)(F)[N+]4=C(c6ccc[nH]6)C=CC4=C5)cc3C2=O)CC1 [NAN-190-2-NB590]
Result :: 5.18

Query :: Follow-up item: N#CN=C(NCCCOc1cccc(CN2CCCCC2)c1)NCCNC(=O)CCOCCOCCOCCOCCNC(=O)CCc1ccc2n1[B-](F)(F)[N+]1=C(c3ccc[nH]3)C=CC1=C2 [Aminopotentidine-2-NB590]
Result :: 1.05
